experiment: analytical gel filtration (Superdex200), apparent molecular weight; assay type: physicochemical
Measured quantity: apparent molecular weight

Task: If you can, please state the reported apparent molecular weight value of GLP-1-Fn8: fusion protein of GLP-1 and Fn8, first 144 residues of SEQ ID NO:2; monomer in solution (protein) HAEGTFTSDVSSYLEGQAAKEFIAWLVKGRGGGGSGGGGSAVPPPTDLRFTNIGPDTMRVTWAPPPSIDLTNFLVRYSPVKNEEDVAELSISPSDNAVVLTNLLPGTEYVVSVSSVYEQHESTPLRGRQKTGGGGSGGGASSGV .
Result: ~20 Kd
